# key: entry, value: logP
EXPERIMENT DESCRIPTION: Partition coefficient (logP) (benzene)
MEASUREMENT PARAMETERS: octanol/water
Enter the number alone.

Record excerpt, results attached:
MOLECULE: O=C(O)c1ccccc1O [SALICYLIC ACID]
ENDPOINT VALUE: 0.5
--
MOLECULE: Oc1ccc(O)cc1 [HYDROQUINONE]
ENDPOINT VALUE: 0.15
--
MOLECULE: Oc1ccc2ccccc2c1 [BETANAPHTHOL]
ENDPOINT VALUE: 1.74

Now examine the next entry.
# input Please look up its logP: Oc1ccccc1 [PHENOL]
# output 0.36

====

EXPERIMENT DESCRIPTION: Partition coefficient (logP) (ether)
MEASUREMENT PARAMETERS: octanol/water
VALUE KIND: logP
Enter the number alone.

Record excerpt, results attached:
MOLECULE: O=C(O)CCl
logP: 0.37
--
MOLECULE: Nc1cccc([N+](=O)[O-])c1
logP: 1.71
--
MOLECULE: CC(C)CO
logP: 0.53
--
MOLECULE: O=Cc1ccc(O)cc1 [4-HYDROXYBENZALDEHYDE]
logP: 1.1
--
MOLECULE: Oc1ccc2ccccc2c1
logP: 1.77

# input Please look up its logP: CCOC(C)=O [ETHYL ACETATE]
# output 0.93

# input Next molecule up: CCCCCO
# output 1.2

# input Next molecule up: CCC1(c2ccccc2)C(=O)NC(=O)NC1=O
# output 1.51

====

EXPERIMENT DESCRIPTION: Diffusion constant for permeability of stratum corneum
Type: ADME
Class key for Log k values: low: < 2; moderate: ≥ 2 and < 3; high: ≥ 3

COMPOUND: CC(=O)[C@@]1(O)CC[C@H]2[C@@H]3CCC4=CC(=O)CC[C@]4(C)[C@H]3CC[C@@]21C [HYDROXYPROGESTERONE]
CLASS LABEL: moderate

# input Which of the defined bands does the recorded Log k of C[C@]12CCC(=O)C=C1CC[C@@H]1[C@@H]2C(=O)C[C@@]2(C)[C@H]1CC[C@]2(O)C(=O)CO sit within?
# output low

# input Next compound up: C[C@]12CC[C@H]3[C@@H](CCC4=CC(=O)CC[C@@]43C)[C@@H]1CC[C@@H]2C(=O)CO
# output moderate

# input Next compound up: CC(=O)[C@H]1CC[C@H]2[C@@H]3CC=C4C[C@@H](O)CC[C@]4(C)[C@H]3CC[C@]12C
# output high

# input Next compound up: C[C@]12C[C@H](O)[C@H]3[C@@H](CCC4=CC(=O)CC[C@@]43C)[C@@H]1CC[C@@H]2C(=O)CO
# output low

# input Next compound up: C[C@]12CCC(=O)C=C1CC[C@@H]1[C@@H]2CC[C@@]2(C)[C@H]1CC[C@]2(O)C(=O)CO
# output low

# input Next compound up: C[C@]12CCC(=O)C=C1CC[C@@H]1[C@@H]2[C@@H](O)C[C@]2(C=O)[C@@H](C(=O)CO)CC[C@@H]12
# output low

# input Next compound up: CC(=O)[C@H]1CC[C@H]2[C@@H]3CCC4=CC(=O)CC[C@]4(C)[C@H]3CC[C@]12C
# output high

# input Next compound up: CC(=O)[C@@]1(O)CC[C@H]2[C@@H]3CC[C@@H]4C[C@H](O)CC[C@]4(C)[C@H]3CC[C@@]21C [HYDROXYPREGNENOLONE]
# output moderate

# input Next compound up: C[C@]12CC[C@H]3[C@@H](CCC4=CC(=O)CC[C@@]43C)[C@@H]1CC[C@@H]2O
# output moderate

====

# key: entry, value: logP
EXPERIMENT DESCRIPTION: Partition coefficient (logP) (chloroform)
MEASUREMENT PARAMETERS: octanol/water
Enter the number alone.

Record excerpt, results attached:
COMPOUND: CC(C)(C)N
logP: 0.54
//
COMPOUND: CCC1(c2ccccc2)C(=O)NC(=O)NC1=O
logP: 0.62
//
COMPOUND: Nc1cccc([N+](=O)[O-])c1
logP: 1.61
//
COMPOUND: CCN
logP: -0.35
//
COMPOUND: CCCN
logP: 0.26
//
COMPOUND: CCOC(C)=O [ETHYL ACETATE]
logP: 1.8
//
COMPOUND: CC(C)=O
logP: 0.24
//
COMPOUND: COc1ccccc1O
logP: 1.7
//
COMPOUND: CO
logP: -1.26
//
COMPOUND: O=C(O)c1ccccc1O
logP: 0.58

# input Please look up its logP: COc1cc(C=O)ccc1O
# output 1.42

# input Next compound up: COc1ccc(O)cc1
# output 0.23

# input Next compound up: Nc1ccccc1C(=O)O
# output -1.15

# input Next compound up: O=[N+]([O-])c1ccc(O)cc1
# output 0.2

# input Next compound up: Oc1ccccc1
# output 0.37

# input Next compound up: CC(C)CO
# output 0.34

# input Next compound up: O=C(O)c1ccc(O)cc1
# output -0.5

====

EXPERIMENT DESCRIPTION: Partition coefficient (logP) (chloroform)
MEASUREMENT PARAMETERS: octanol/water
VALUE KIND: logP

COMPOUND: O=C(O)CCl
logP: -1.92
--
COMPOUND: COc1ccc(C=O)cc1O
logP: 1.18
--
COMPOUND: O=[N+]([O-])c1ccccc1O [NITROPHENOLATE]
logP: 2.35
--
COMPOUND: Oc1ccc2ccccc2c1
logP: 1.74
--
COMPOUND: O=C(O)c1cccc([N+](=O)[O-])c1
logP: 0.48
--
COMPOUND: CCCCCO
logP: 1.05

Now examine the next entry.
# input Please look up its logP: CCCCC(=O)O
# output 0.28

====

EXPERIMENT DESCRIPTION: Partition coefficient (logP) (carbon tetrachloride)
MEASUREMENT PARAMETERS: octanol/water
VALUE KIND: logP
Enter the number alone.

Record excerpt, results attached:
COMPOUND: Oc1ccccc1
logP: -0.36
//
COMPOUND: Oc1ccc2ccccc2c1
logP: 0.99
//
COMPOUND: Oc1ccc(O)cc1 [HYDROQUINONE]
logP: 0.04

# input Please look up its logP: O=C(O)c1ccccc1O
# output 0

====

EXPERIMENT DESCRIPTION: Partition coefficient (logP)
MEASUREMENT PARAMETERS: octanol/water
VALUE KIND: logP

Record excerpt, results attached:
COMPOUND: CO
logP: -0.77

COMPOUND: CC(C)CO
logP: 0.65

COMPOUND: CCCN
logP: 0.28

# input Please look up its logP: O=C(O)CCl
# output 0.22

# input Next compound up: Nc1ccccc1C(=O)O
# output 1.21

# input Next compound up: CC(C)(C)N
# output 0.27

# input Next compound up: CCCCC(=O)O
# output 1.39

# input Next compound up: COc1cccc(C=O)c1O
# output 1.37

# input Next compound up: O=C(O)C(Cl)(Cl)Cl
# output 1.33

# input Next compound up: CCCCCCCO
# output 2.41

# input Next compound up: COc1ccc(C=O)cc1O
# output 0.97

# input Next compound up: CCCC(C)C1(CC)C(=O)NC(=O)NC1=O (stereo not drawn)
# output 2.1

# input Next compound up: COc1ccccc1O
# output 1.32

# input Next compound up: CCC(N)CC
# output 0.57

# input Next compound up: Nc1ccccc1[N+](=O)[O-]
# output 1.85

# input Next compound up: CCN
# output -0.3

# input Next compound up: CCC1(c2ccccc2)C(=O)NC(=O)NC1=O
# output 1.71

# input Next compound up: CCCCN
# output 0.74

====

EXPERIMENT DESCRIPTION: Partition coefficient (logP) (chloroform)
MEASUREMENT PARAMETERS: octanol/water
# key: entry, value: logP
Enter the number alone.

COMPOUND: O=[N+]([O-])c1cccc(O)c1
ENDPOINT VALUE: 0.6
--
COMPOUND: Nc1ccccc1[N+](=O)[O-]
ENDPOINT VALUE: 2.13
--
COMPOUND: O=Cc1ccc(O)cc1 [4-HYDROXYBENZALDEHYDE]
ENDPOINT VALUE: -0.12
--
COMPOUND: CCC(=O)O
ENDPOINT VALUE: -0.96
--
COMPOUND: CCCCN
ENDPOINT VALUE: 0.56
--
COMPOUND: O=C(O)C(Cl)(Cl)Cl
ENDPOINT VALUE: -0.69
--
COMPOUND: Nc1ccccc1
ENDPOINT VALUE: 1.42
--
COMPOUND: CCCCCC(=O)O [HEXANOATE]
ENDPOINT VALUE: 1.15

# input Please look up its logP: Oc1ccc(O)cc1 [HYDROQUINONE]
# output 0.23

# input Next compound up: CCCCCCCO
# output 2.41

# input Next compound up: COC(C)=O
# output 1.16

# input Next compound up: COc1cccc(C=O)c1O
# output 2.3

# input Next compound up: CCCC(C)C1(CC)C(=O)NC(=O)NC1=O (centres undefined)
# output 1.38

# input Next compound up: CCC(N)CC
# output 0.81
